Experiment: Quantitative High-Throughput drug screen in 47 multiple myeloma cell lines against the NCATS MIPE library collection: KMS20_JCRB cell viability assay (AID 1918973); further: nearly all actives have a fitted effect of over 45% in size; further: potency means the concentration at half of the fitted maximal effect
Details: CellTiter-Glo ATP, 48 h; series mostly up to 45.8 µM
Results filed as inconclusive are left out. Calls of active or inactive are those of the source. The call rests on the fitted dose curve; in most records, active means well fitted cell-killing curve with a large enough effect; inconclusive means small, poorly fitted or top-dose-only effect, or effect the other way; inactive means no such curve, though single readings can be large or run the other way. Positions of bridges follow the written chain, without caps; N, C: chain ends. Non-standard residues stand in square brackets, D forms with d. Residues, ends and D or L forms follow the SMILES beside them. ξ: configuration not given here. *: point of attachment. Octanoyl(6-Me) = CCC(C)CCCCC(=O)*; ξThr(3R) = C[C@@H](O)C(N)C(=O)O; dDab = NCC[C@@H](N)C(=O)O; Dab = NCC[C@H](N)C(=O)O
Reported Endpoint: Potency

CCCCCCCCCCCC(CC1OC(=O)C1CCCCCC)OC(=O)C(CC(C)C)NC=O (stereo not drawn) ... 4.2 nM (active)
CON=C(C(=O)N[C@@H]1C(=O)N2C(C(=O)O)=C(CSC(=O)c3ccco3)CS[C@H]12)c1csc(N)n1 ... inactive
O=C(C=CC#Cc1cccc(NS(=O)(=O)c2ccccc2)c1)NO ... 2350 nM (active)
COC(=O)[C@H](CCCN=C(N)N)NS(=O)(=O)c1ccc(C)cc1 ... inactive
CC(C)(O)CC[C@@H](O)[C@](C)(O)[C@H]1CC[C@@]2(O)C3=CC(=O)[C@@H]4C[C@@H](O)[C@@H](O)C[C@]4(C)[C@@H]3CC[C@]12C ... inactive
CCOc1cc2c(c(F)c1OCC)C(=N)N(CC(=O)c1cc(N3CCOCC3)c(OC)c(C(C)(C)C)c1)C2 ... 9350 nM (active)

Item C[C@@H]1C(=O)O[C@H]2CC34[C@H]5C[C@@H](C(C)(C)C)C36[C@H](OC(=O)[C@@H]6O)O[C@@]4(C(=O)O5)[C@]21O (stereo partly drawn) has what recorded Potency?
inactive

Now give it for COc1cc([C@@H]2c3cc4c(cc3[C@H](O)[C@H]3COC(=O)[C@@H]23)OCO4)cc(OC)c1OC too.
1320 nM (active)

Now give it for c1cncc(CN2CCC(n3ncc4c(N5CCOCC5)nc(-c5ccc6[nH]ccc6c5)nc43)CC2)c1 too.
1180 nM (active)

Now give it for C[C@@H](NCc1cc2ccccc2[nH]1)c1cccc2ccccc12 too.
inactive

Now give it for CCC(C)CCCCC(=O)N[C@@H](CCN)C(=O)NC(C(=O)N[C@H](CCN)C(=O)N[C@@H]1CCNC(=O)C([C@@H](C)O)NC(=O)[C@@H](CCN)NC(=O)[C@@H](CCN)NC(=O)[C@@H](CC(C)C)NC(=O)[C@H](Cc2ccccc2)NC(=O)[C@H](CCN)NC1=O)[C@@H](C)O (stereo partly drawn) ({Octanoyl(6-Me)}-[Dab][ξThr(3R)][dDab][dDab][Dab]F[dL][dDab][dDab][ξThr(3R)]; lactam 4-C) too.
inactive

Now give it for CCC[C@H]1C[C@H](C(=O)N[C@@H]([C@@H]2O[C@@H](SC)[C@@H](O)[C@@H](O)[C@@H]2O)[C@H](C)Cl)N(C)C1 too.
inactive

Now give it for CCNC(=O)c1cc2c(-c3cc(OCCN4CCCC4)c(Cl)cc3Cl)nc(N)nc2s1 too.
1660 nM (active)

Now give it for CC(C=CC1=C(C)CCCC1(C)C)=CC=CC(C)=CC(=O)Nc1ccc(O)cc1 too.
15200 nM (active)
